This collection of values is drawn from PubChem BioAssay (NCI).

Test system: HCT-116 colon
assay comment: NCI tumour cell line growth inhibition, 48 h
Would you kindly list TGI for each of these molecules?

| molecule | TGI |
| --- | --- |
| COc1nc2[nH]ccc2c(=O)[nH]1 | > 100 µM |
| Nc1ccc2c(O)cc(=O)[nH]c2n1 | > 100 µM |
| CC(C)OC(=O)c1ccc(CCC2=CC(=O)C=CC2=O)cc1 | 27 µM |
| C=CCN(c1cc(OCc2ccccc2)c2[nH]cc(C)c2c1)S(C)(=O)=O | > 100 µM |
| c1ccc2c(Cc3[nH]c4ccccc4c3Cc3c[nH]c4ccccc34)c[nH]c2c1 | 3.47 µM |

Batch of 3 molecules: report TGI for each.
1. Cc1ccc(S(=O)(=O)NC(=O)NCCc2cnc[nH]2)cc1
2. COc1ccc(C2N(c3ccc(F)cc3)C(=O)N3C(c4ccc(OC)cc4)N(c4ccc(F)cc4)C(=O)N23)cc1 (configuration not stated)
3. COc1ccc(C/C(=N/O)C(=O)NCCc2cc(Br)c(OCCCN(C)C)c(Br)c2)cc1Br

[out]
1: > 100 µM; 2: > 100 µM; 3: 28 µM

====

System: NCI-H460 lung
assay comment: NCI tumour cell line growth inhibition, 48 h
Would you kindly list TGI for each of these molecules?

Batch of 8 molecules: report TGI for each.
1. COC(=O)C1CCc2c1c(=O)n1c([nH]c3ccccc31)c2C#N (stereo not given)
2. C[C@@H](NC1CCCC[C@H]1O)c1ccccc1 (stereo not given in full)
3. Cc1cn(C2CC(O)C(COC(=O)c3ccccc3)O2)c(=O)[nH]c1=O (stereo not given)
4. CC(C)OC(=O)c1ccc(CCC2=CC(=O)C=CC2=O)cc1
5. c1cc(NNc2cccc(-c3nn[nH]n3)c2)cc(-c2nn[nH]n2)c1
6. CCN(CC)c1ccc(/C=N/NC(=O)CSc2nc3ccccc3c(=O)n2CCc2ccc(S(N)(=O)=O)cc2)c(O)c1
7. CCc1ccccc1N=NC(=O)NNc1ccccc1CC
8. Cc1ccc(NC(Nc2ccc(C)cc2C)=C(C(Cl)=C(Cl)Cl)[N+](=O)[O-])c(C)c1

[out]
> 100 µM
> 100 µM
> 100 µM
54.1 µM
> 100 µM
> 100 µM
34.5 µM
29.7 µM

====

Would you kindly list TGI for each of these compounds?
System: HS 578T breast
assay comment: NCI tumour cell line growth inhibition, 48 h
Numbers only, in µM.

| compound | target | numeric result |
| --- | --- | --- |
| CC[C@H](C)[C@H]1NC(=O)[C@@H](NC(=O)[C@@H](CC(C)C)N(C)C(=O)C2CCCN2C(=O)[C@H](C)O)[C@@H](C)OC(=O)[C@H](Cc2ccc(OC)cc2)N(C)C(=O)[C@@H]2CCCN2C(=O)[C@H](CCCCNC(=O)OCc2ccccc2)NC(=O)[C@H](C)C(=O)[C@H](C(C)C)OC(=O)C[C@@H]1O (some centres undefined) | HS 578T breast | 8.35 |

[in] Which measured TGI value corresponds to CC(C)C1C(=O)N(c2c(F)c(F)c(F)c(F)c2F)C(=S)N1CCS(=O)c1ccccc1 (centres undefined) ?
[out] 62.6

====

Would you kindly list TGI for each of these compounds?
Test system: NCI/ADR-RES ovarian
assay comment: NCI tumour cell line growth inhibition, 48 h

Solved entries:
| compound | target | TGI |
| --- | --- | --- |
| COc1cc2oc(=O)ccc2cc1C(=O)CC(C)C | NCI/ADR-RES ovarian | > 100 µM |
| OC(c1ccccc1)(c1ccccc1)c1nccc2ccccc12 | NCI/ADR-RES ovarian | > 100 µM |
| COCC1CCCN1c1ccc(C=N/C(C#N)=C(\N)C#N)cc1 (stereo unspecified) | NCI/ADR-RES ovarian | > 100 µM |

Batch of 3 compounds: report TGI for each.
1. CCCCNC(=O)c1cc2c(cc1Cl)Sc1nccn1S2(=O)=O
2. CN(c1ncccc1CNc1nc(Nc2ccc3c(c2)CC(=O)N3)ncc1C(F)(F)F)S(C)(=O)=O
3. c1cc(NNc2cccc(-c3nn[nH]n3)c2)cc(-c2nn[nH]n2)c1

[out]
1. > 100 µM
2. > 85.8 µM
3. > 100 µM
